Exercise: for every item that follows, state its recorded spectrum intensity of the compound in the SEC spin column filtrate.
# target: FLJ41991-derived protein (Homo sapiens, UniProt P57764, E293G)
# Construct: His-tag (N); made in house; host or cells: Escherichia coli BL21star(DE3)pLysS (pDEST17)
# Sequence (P57764 265-484 E293G): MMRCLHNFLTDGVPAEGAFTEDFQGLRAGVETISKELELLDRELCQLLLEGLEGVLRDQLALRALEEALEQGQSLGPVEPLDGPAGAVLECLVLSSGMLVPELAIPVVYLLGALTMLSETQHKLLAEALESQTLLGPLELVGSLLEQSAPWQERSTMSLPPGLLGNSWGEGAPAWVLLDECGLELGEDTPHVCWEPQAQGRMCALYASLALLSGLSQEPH
# test: SEC/MS interaction analysis, FLJ41991-derived protein (GSDMDC1)
# Assay type: binding
# setup conditions: compound 25 μM, protein 0 μM
Numbers only.

These solved cases illustrate the format of a correct answer.
compound	numeric result
OC(c1cc(C(F)(F)F)nc2c(C(F)(F)F)cccc12)C1CCCCN1 (stereo not shown)	27931
CN(C)CC/C=C1/c2ccccc2Sc2ccc(Cl)cc21	161141
OCCN1CCN(CCCN2c3ccccc3Sc3ccc(C(F)(F)F)cc32)CC1	193639
CN(C)C(=O)C(CCN1CCC(O)(c2ccc(Cl)cc2)CC1)(c1ccccc1)c1ccccc1 [loperamide]	263744
CN1[C@@H]2CC[C@H]1C[C@@H](OC(c1ccccc1)c1ccccc1)C2	152947

Value sought for every listed compound: spectrum intensity of the compound in the SEC spin column filtrate.
1. OCCN1CCN(CCCN2c3ccccc3Sc3ccc(Cl)cc32)CC1
2. CC(C)(C)c1ccc(C(O)CCCN2CCC(C(O)(c3ccccc3)c3ccccc3)CC2)cc1 (stereo not shown)
3. COc1ccc(CCN2CCC(Nc3nc4ccccc4n3Cc3ccc(F)cc3)CC2)cc1
4. O=C(c1ccc(OCCN2CCCCC2)cc1)c1c(-c2ccc(O)cc2)sc2cc(O)ccc12

A.
1. 38186
2. 87636
3. 19274
4. 37961

Q. spectrum intensity of the compound in the SEC spin column filtrate lookup needed for CCN(CC)CCCC(C)Nc1c2ccc(Cl)cc2nc2ccc(OC)cc12 (stereo not shown) , thanks.
A. 40978

* * *

# target: FLJ41991-derived protein (Homo sapiens, UniProt P57764, E293G)
# Construct: His-tag (N); made in house; host or cells: Escherichia coli BL21star(DE3)pLysS (pDEST17)
# test: SEC/MS interaction analysis, FLJ41991-derived protein (GSDMDC1)
# Format: binding
# setup conditions: compound 12.5 μM, protein 10 μM
# note: exactly 300000 is not below, so it is not satisfied; use satisfied for spectrum intensity of the compound in the SEC spin column filtrate strictly under it

Known results for compounds:
compound	answer label
OCCN1CCN(CCCN2c3ccccc3Sc3ccc(C(F)(F)F)cc32)CC1	not satisfied
COc1ccc(CCN2CCC(Nc3nc4ccccc4n3Cc3ccc(F)cc3)CC2)cc1	satisfied
CCN(CC)CCCC(C)Nc1c2ccc(Cl)cc2nc2ccc(OC)cc12 (stereo not shown)	satisfied
CN1[C@@H]2CC[C@H]1C[C@@H](OC(c1ccccc1)c1ccccc1)C2	satisfied
CN(C)CC/C=C1/c2ccccc2Sc2ccc(Cl)cc21	satisfied

Q. Determine if O=C(c1ccc(OCCN2CCCCC2)cc1)c1c(-c2ccc(O)cc2)sc2cc(O)ccc12 shows spectrum intensity of the compound in the SEC spin column filtrate strictly lower than 300000.
A. satisfied

Q. Report whether reported spectrum intensity of the compound in the SEC spin column filtrate is lower than 300000 (strictly) for OCCN1CCN(CCCN2c3ccccc3Sc3ccc(Cl)cc32)CC1
A. satisfied

Q. Threshold test, spectrum intensity of the compound in the SEC spin column filtrate < 300000: OC(c1cc(C(F)(F)F)nc2c(C(F)(F)F)cccc12)C1CCCCN1 (stereo not shown)
A. satisfied

Q. In the record for CC(C)(C)c1ccc(C(O)CCCN2CCC(C(O)(c3ccccc3)c3ccccc3)CC2)cc1 (stereo not shown) , is spectrum intensity of the compound in the SEC spin column filtrate less than 300000?
A. not satisfied

Q. Below 300000 on spectrum intensity of the compound in the SEC spin column filtrate? Entry CN(C)C(=O)C(CCN1CCC(O)(c2ccc(Cl)cc2)CC1)(c1ccccc1)c1ccccc1 [loperamide]
A. not satisfied

* * *

# target: FLJ38531-derived protein (Homo sapiens)
# Construct: His-tag (N); made in house; host or cells: Escherichia coli BL21star(DE3)pLysS
# Sequence (Q9BVM4 1-153): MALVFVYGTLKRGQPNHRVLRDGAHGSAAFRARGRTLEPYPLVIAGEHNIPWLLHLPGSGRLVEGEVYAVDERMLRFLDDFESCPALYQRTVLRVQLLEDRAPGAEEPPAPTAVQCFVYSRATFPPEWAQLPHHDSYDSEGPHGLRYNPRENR
# test: Biacore dissociation constant (KD) measurement, FLJ38531-derived protein
# Assay type: binding
# setup conditions: FLJ38531-derived protein (SEQ ID NO 13)
property: pKd
Answers are plain numbers, as −log10 of the molar value.

Q. Look up pKd for this compound: O=C(O)c1cc(/N=N/c2ccc(S(=O)(=O)Nc3ccccn3)cc2)ccc1O
A. 5.05

* * *

# target: FLJ41991-derived protein (Homo sapiens, UniProt P57764, E293G)
# Construct: His-tag (N); made in house; host or cells: Escherichia coli BL21star(DE3)pLysS (pDEST17)
# test: SEC/MS interaction analysis, FLJ41991-derived protein (GSDMDC1)
# Type: binding
# setup conditions: compound 62.5 μM, protein 0 μM
property: spectrum intensity of the compound in the SEC spin column filtrate
Numbers only.

compound	numeric result
CN(C)C(=O)C(CCN1CCC(O)(c2ccc(Cl)cc2)CC1)(c1ccccc1)c1ccccc1 [loperamide]	1579322
CN1[C@@H]2CC[C@H]1C[C@@H](OC(c1ccccc1)c1ccccc1)C2	911727
OCCN1CCN(CCCN2c3ccccc3Sc3ccc(C(F)(F)F)cc32)CC1	200313

Respectfully, I request spectrum intensity of the compound in the SEC spin column filtrate for each entry included below.
1. CN(C)CC/C=C1/c2ccccc2Sc2ccc(Cl)cc21
2. O=C(c1ccc(OCCN2CCCCC2)cc1)c1c(-c2ccc(O)cc2)sc2cc(O)ccc12
3. CC(C)(C)c1ccc(C(O)CCCN2CCC(C(O)(c3ccccc3)c3ccccc3)CC2)cc1 (stereo not shown)
4. CCN(CC)CCCC(C)Nc1c2ccc(Cl)cc2nc2ccc(OC)cc12 (stereo not shown)
5. COc1ccc(CCN2CCC(Nc3nc4ccccc4n3Cc3ccc(F)cc3)CC2)cc1
6. OCCN1CCN(CCCN2c3ccccc3Sc3ccc(Cl)cc32)CC1

A.
1: 156021; 2: 58164; 3: 231173; 4: 123977; 5: 27212; 6: 35061

Q. What value of measured spectrum intensity of the compound in the SEC spin column filtrate is listed for OC(c1cc(C(F)(F)F)nc2c(C(F)(F)F)cccc12)C1CCCCN1 (stereo not shown) ?
A. 97153

* * *

# target: FLJ41991-derived protein (Homo sapiens, UniProt P57764, E293G)
# Construct: His-tag (N); made in house; host or cells: Escherichia coli BL21star(DE3)pLysS (pDEST17)
# test: SEC/MS interaction analysis, FLJ41991-derived protein (GSDMDC1)
# Type: binding
# setup conditions: compound 25 μM, protein 10 μM
Exercise: for every item that follows, state its recorded spectrum intensity of the compound in the SEC spin column filtrate.

Sample answers from the record:
compound	result
CN(C)C(=O)C(CCN1CCC(O)(c2ccc(Cl)cc2)CC1)(c1ccccc1)c1ccccc1 [loperamide]	1856141
OCCN1CCN(CCCN2c3ccccc3Sc3ccc(Cl)cc32)CC1	229107
OC(c1cc(C(F)(F)F)nc2c(C(F)(F)F)cccc12)C1CCCCN1 (stereo not shown)	273106
CCN(CC)CCCC(C)Nc1c2ccc(Cl)cc2nc2ccc(OC)cc12 (stereo not shown)	481486
OCCN1CCN(CCCN2c3ccccc3Sc3ccc(C(F)(F)F)cc32)CC1	843648
O=C(c1ccc(OCCN2CCCCC2)cc1)c1c(-c2ccc(O)cc2)sc2cc(O)ccc12	119306

Below are 4 compounds. Give each one its spectrum intensity of the compound in the SEC spin column filtrate.
1. CN(C)CC/C=C1/c2ccccc2Sc2ccc(Cl)cc21
2. CN1[C@@H]2CC[C@H]1C[C@@H](OC(c1ccccc1)c1ccccc1)C2
3. COc1ccc(CCN2CCC(Nc3nc4ccccc4n3Cc3ccc(F)cc3)CC2)cc1
4. CC(C)(C)c1ccc(C(O)CCCN2CCC(C(O)(c3ccccc3)c3ccccc3)CC2)cc1 (stereo not shown)

A.
[277798, 560686, 732296, 949465]

* * *

# target: FLJ41991-derived protein (Homo sapiens, UniProt P57764, E293G)
# Construct: His-tag (N); made in house; host or cells: Escherichia coli BL21star(DE3)pLysS (pDEST17)
# test: SEC/MS interaction analysis, FLJ41991-derived protein (GSDMDC1)
# Assay type: binding
# setup conditions: compound 12.5 μM, protein 5 μM
Would you mind telling me the reported spectrum intensity of the compound in the SEC spin column filtrate of each entry?
Numbers only.

// solved cases for spectrum intensity of the compound in the SEC spin column filtrate follow
compound	numeric result
CN1[C@@H]2CC[C@H]1C[C@@H](OC(c1ccccc1)c1ccccc1)C2	220928
OCCN1CCN(CCCN2c3ccccc3Sc3ccc(C(F)(F)F)cc32)CC1	162795
OCCN1CCN(CCCN2c3ccccc3Sc3ccc(Cl)cc32)CC1	43607

Each compound below has a recorded value; state its spectrum intensity of the compound in the SEC spin column filtrate.
1. CN(C)CC/C=C1/c2ccccc2Sc2ccc(Cl)cc21
2. COc1ccc(CCN2CCC(Nc3nc4ccccc4n3Cc3ccc(F)cc3)CC2)cc1
3. CC(C)(C)c1ccc(C(O)CCCN2CCC(C(O)(c3ccccc3)c3ccccc3)CC2)cc1 (stereo not shown)
4. CN(C)C(=O)C(CCN1CCC(O)(c2ccc(Cl)cc2)CC1)(c1ccccc1)c1ccccc1 [loperamide]
5. OC(c1cc(C(F)(F)F)nc2c(C(F)(F)F)cccc12)C1CCCCN1 (stereo not shown)
6. O=C(c1ccc(OCCN2CCCCC2)cc1)c1c(-c2ccc(O)cc2)sc2cc(O)ccc12

A.
1. 175333
2. 60014
3. 200843
4. 200285
5. 46239
6. 32265

Q. Hi! What's the reported spectrum intensity of the compound in the SEC spin column filtrate for CCN(CC)CCCC(C)Nc1c2ccc(Cl)cc2nc2ccc(OC)cc12 (stereo not shown) on FLJ41991-derived protein (Homo sapiens, UniProt P57764, E293G)?
A. 77607

Numbers sourced from patent US20090143285A1.
